B1: VH:VL chains; a variant is named by its letters at X, in order (parent)
chain 1: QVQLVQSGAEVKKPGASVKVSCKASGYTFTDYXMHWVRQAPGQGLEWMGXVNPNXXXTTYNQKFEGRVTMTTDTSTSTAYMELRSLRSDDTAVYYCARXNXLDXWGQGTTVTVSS
chain 2: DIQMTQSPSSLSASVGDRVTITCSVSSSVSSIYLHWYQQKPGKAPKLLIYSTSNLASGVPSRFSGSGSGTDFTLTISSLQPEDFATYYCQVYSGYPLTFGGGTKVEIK

Variants of: B1
Assay: yeast display scFab, FACS + sequencing
Quantity Name: non-specific binding call

Worked examples follow.
>  <Mutant Id>
VEAGDDVY

>  <Quantity Name>
non-specific binding call

>  <Result Value>
no binding

$$$$
>  <Mutant Id>
SETTDDAV

>  <Quantity Name>
non-specific binding call

>  <Result Value>
no binding

$$$$
>  <Mutant Id>
FRTRDSSS

>  <Quantity Name>
non-specific binding call

>  <Result Value>
binds

$$$$
>  <Mutant Id>
VEEEGDGA

>  <Quantity Name>
non-specific binding call

>  <Result Value>
no binding

$$$$
>  <Mutant Id>
VAKENAVA

>  <Quantity Name>
non-specific binding call

>  <Result Value>
no binding

$$$$
>  <Mutant Id>
YRRRGSLF

>  <Quantity Name>
non-specific binding call

>  <Result Value>
binds

$$$$
>  <Mutant Id>
YRKGSSWD

>  <Quantity Name>
non-specific binding call

>  <Result Value>
binds

$$$$
>  <Mutant Id>
YARRAAVS

>  <Quantity Name>
non-specific binding call

>  <Result Value>
binds

$$$$
>  <Mutant Id>
DTGGGDAA

>  <Quantity Name>
non-specific binding call

>  <Result Value>
no binding

$$$$
>  <Mutant Id>
YKGRGSVY

>  <Quantity Name>
non-specific binding call

>  <Result Value>
binds

$$$$

Quick request: non-specific binding call for each listed item, please.
1. VAGGDDGF
2. FRGKGAWD
3. YTGGDDVV
4. SEEASSSA
5. YRRRGDWA

no binding
binds
no binding
no binding
binds

From: the emibetuzumab library of Makowski et al. (2022)
